# maps each entry to its kon
Target: hErbB3.mmh (soluble monomeric human ErbB3 extracellular domain with C-terminal myc-myc-hexahistidine tag) (human, UniProt P21860 20-642)
Sequence (P21860 other isoform, or with tags, fused parts or gaps): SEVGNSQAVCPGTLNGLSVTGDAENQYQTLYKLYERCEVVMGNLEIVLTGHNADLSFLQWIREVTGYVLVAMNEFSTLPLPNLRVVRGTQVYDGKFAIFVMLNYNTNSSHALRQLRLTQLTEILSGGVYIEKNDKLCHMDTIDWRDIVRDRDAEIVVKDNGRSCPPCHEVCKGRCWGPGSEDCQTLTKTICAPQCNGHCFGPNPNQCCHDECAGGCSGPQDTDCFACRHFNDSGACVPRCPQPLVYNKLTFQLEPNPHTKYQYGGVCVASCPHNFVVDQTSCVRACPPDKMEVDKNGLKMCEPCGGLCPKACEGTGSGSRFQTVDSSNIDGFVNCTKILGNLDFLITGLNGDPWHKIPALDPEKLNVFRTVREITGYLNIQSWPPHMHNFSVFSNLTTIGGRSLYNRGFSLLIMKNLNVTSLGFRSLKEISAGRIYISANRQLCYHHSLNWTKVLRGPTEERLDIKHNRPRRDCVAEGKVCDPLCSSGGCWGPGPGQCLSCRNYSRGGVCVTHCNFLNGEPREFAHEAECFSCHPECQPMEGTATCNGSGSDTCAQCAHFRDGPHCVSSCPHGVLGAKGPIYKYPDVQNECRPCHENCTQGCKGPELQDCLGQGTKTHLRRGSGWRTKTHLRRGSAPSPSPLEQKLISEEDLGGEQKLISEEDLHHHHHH
Test: SPR (Biacore), 25 C, mAb capture format
Numbers only; they are read as M⁻¹ s⁻¹.

Worked examples follow.
H4H2290P (antibody, V domains shown, Fully human, human IgG4 Fc (H4H prefix)) VH: EVQLLESGGGLVQPGGSLRLSCVASGFTFSSFAMSWVRQAPGKGLEWVSVISGSGGSTNHADSVRGRFTISRDNSLNTVYLQMHSLRAEDTALYYCVKAETSSSYFYYGMDVWGQGTTVTVSS VL: DIQLTQSPSFLSASVGDRVTITCWASQDISSYLAWYQQKPGKVPNLLIYGASSLQPGVPSRFSGSGSGTEFTLTISSLQPEDFATYYCQQLNNYPTFGGGTKLEIKR : 582000
H4H2151P (antibody, V domains shown, Fully human, human IgG4 Fc (H4H prefix)) VH: QVQLVESGGGVVQPGRSLRLSCAASGFTFSNYGMHWVRQAPGKGLEWVARIWYDGSNKYYADSVKGRFTISRDSSKNTLYLQMNSLRAEDTAVYYCAREGEQNLDYYPLDVWGQGTTVTVSS VL: DIVMTQSPSSLSASVGDRVTITCRASQDIRNDLGWYQQKPGKAPKLLIYAASSLQTGVPSRFSGSVSGTDFTLTISSLQPEDFATYYCLQDYTYPLTFGGGTKVEIK : 3.04e+06

Switching to the query record.
// H4H2094P (antibody, V domains shown, Fully human, human IgG4 Fc (H4H prefix)) VH: EVQLVESGGGLVQPGGSLRLSCAASGFTFSSYDMHWVRQATGKGLEWVSAIGPAGDTYYPVSAMGRFTISRDDAKNSLYLQMNSLRAGDTAVYYCAREGVTIRPDDYFGLDVWGQGTTVTVSA VL: DIQLTQSPSFLSASVGDRVTITCWASQGISDYLAWYQKKPGKAPQLLIYAATTLQSGVPSRFSGSGSGTEFTLTISSLQPEDFATYYCQQLNTYPLTFGGGTKVEIKR : kon value = 1.89e+06
